Assay: liver-stage malaria parasite load reduction – cell-based, known kinase inhibitor set, luminescence, hepatoma host viability (AID 624392);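 further: infected cells incubated roughly two days before readout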
Details: Plasmodium liver stage in hepatoma cells, luciferase luminescence, concentration not given here
Active and inactive are the calls of the source. How the calls were made is not given here.
Assign a class; possible classes are Yes = active, No = inactive

// known answers, use as guide
{"columns": ["compound", "label.class"],
 "data": [
  ["CC(C)n1cnc2c(NCc3ccccc3)nc(NCc3ccccc3)nc21", "No"],
  ["NC(=O)c1cccc(-c2cc(Oc3ccc(OC(F)(F)F)cc3)ncn2)c1", "No"],
  ["COc1cc(NC(=O)N2CCNC2=O)cc(C(=O)Nc2cccc(C(F)(F)F)c2)c1", "No"]
]}

## Input # fetch the recorded call for CCN1C(=O)CCN(C2CCCC2)c2nc(Nc3ccc(C(=O)NC4CCN(C)CC4)cc3OC)ncc21 here
## Output No

## Input # fetch the recorded call for COc1cc2ncn(-c3cc(OCCc4ccccc4)c(C(N)=O)s3)c2cc1OC here
## Output No

## Input # fetch the recorded call for CCN1CCN(Cc2ccc(NC(=O)c3cc(NC(=O)c4ccc5n[nH]nc5c4)cc(OC)c3)cc2C(F)(F)F)CC1 here
## Output No

## Input # fetch the recorded call for NC1CCC(Nc2nc(Nc3ccc(S(=O)(=O)N4CCCCC4)cc3)c3ncn(-c4ccccc4)c3n2)CC1 (centres undefined) here
## Output No

## Input # fetch the recorded call for C=CC(=O)Nc1cccc(Oc2cc(Cl)nc3[nH]ccc23)c1 here
## Output No

## Input # fetch the recorded call for CCN1CCN(Cc2ccc(NC(=O)c3ccc(C)c(NC(=O)c4c[nH]c5cc(C(F)(F)F)ccc5c4=O)c3)cc2C(F)(F)F)CC1 here
## Output Yes

Values from PubChem BioAssay
